- TARGET_UNDER_TEST: T1, human CLDN18.2 (human)
- T1 construct: also called hCLDN18.2; huCLDN18.2
- ASSAY_NAME: flow cytometry, phage supernatant on hCLDN18.2-expressing HEK293T cells
Readings of mean fluorescence intensity for the listed binders
ENDPOINT_LABEL: mean fluorescence intensity (MFI)

1) A18-1-75 (VHH) VHH: EVQLVESGGGLVQPGGSLRLSCAASGNIFRIDTMVWYRQAPGKQRELVAGISRGGTTNYAHSVKGRFTISRDNAKNTMYLQMNSLKSEDTATYYCNAQAWDVGTIRYLEVWGQGTLVTVSA
387000
2) A18-1-6 (VHH) VHH: EVQVQESGGGLVQPGGSLRLSCAASGSIFNIPVMSWYRQAPGKQRELVAGISTGGTTNYGDSVKGRFTISRDNAKTTVYLQMNSLKPEDTAVYYCNVLVISGIGSHLEVWG
396000
3) A18-1-62 (VHH) VHH: QVQLVESGGGLVQPGGSLRLSCAASGTIFNIPVMGWYRQAPGKQRELVAGISTGGTTNYGDSVKGRFTISRDNAKNTVYLQMNSLKPEDTAVYYCNVLVISGIGSHLEVWG
372000
4) A293-82 (VHH) VHH: EVQVVESGGGLVQPGGSLRLSCAASGNIFRIDTMVWYRQAPGKQRELVAGISRGGTTNYAHSVKGRFTISRDNAKNTMYLQMNSLKSEDTATYYCNAQAWDVGTIRYLEVWGQGTLVTVSA
442000
5) A293-34 (VHH, also called candidate nanobody A293-34) VHH: QVQLQESGGGLVQPGGSLRLSCAASGTFFNIPVMGWYRQAPGKQRELVAGISTGGTTNYGDSVKGRFTISRDNAKNTVYLQMNSLKPEDTAVYYCNVLVISGIGSHLEVWG
454000
6) A18-1-48 (VHH) VHH: EVQLVESGGGLVQPGGSLRLSCAASGNIFRIDTMGWYRQAPGKQREFVAGISRGGSTNYAHSVKERFTISRDNAKNTMYLQMNSLKSEDTAGYYCNAQAWDPGTIRYLEVWGQGTLVTVSA
357000
7) A18-1-65 (VHH) VHH: EVQLQESGGGLVQPGGSLRLSCAASGTIFNLPVMSWYRQAPGKQRELVAGISTGGTTNYGDSVKGRFTISRDNARNTVYLQMNSLKPEDTAVYYCNVLVVSGIGSHLEVWG
428000
8) A18-1-50 (VHH) VHH: EVQVQESGGGLVQPGGSLRLSCAASGNIFRIDTMGWYRQAPGKQRELVAGISRGGTTTYAHSVKERFTISRDNAKNTMYLQMNSLKSEDTAGYYCNAQAWDPGTFRYLEVWGQGTLVTVSA
403000
9) A293-55 (VHH) VHH: QVQLVESGGGSVQPGGSLRLSCAASGSIFHIVVMGWYRQAPGKQRELVAGMSTGGTTNYGDSVKGRFTISRDNAKNTVYLQMNSLKPEDTAVYYCNVLVISGIGSHLEVWG
392000
10) A-2-4 (VHH, also called candidate nanobody A-2-4) VHH: EVQVQESGGGLVQAGTSLRLSCAASGNIFRIDTMGWYRQAPGKQRELVAGISRGGTTTYAHSVKERFTISRDNAKNTMYLQMNSLKSEDTAGYYCNAQAWDPGTFRYLEVWGQGTLVTVSA
592000
11) A18-1-64 (VHH) VHH: QVQLVESGGGLVQPGGSLRLSCAASGNIFRIDTMGWYRQAPGKQREFVAGISRGGSTNYAHSVKERFTISRDNAKNTMYLQMNSLKSEDTAGYYCNAQAWDPGTIRYLEVWGQGTLVTVSS
406000
12) A18-1-42 (VHH, also called candidate nanobody A18-1-42) VHH: EVQVVESGGGLVQPGGSLRLSCAASGSILHIPVMSWYRQAPGKQRELVAGISTGGTTNYGDSVKGRFTISRDNAKNTVYLQMNSLKPEDTAAYYCNVLVVSGIGSHLEVWG
396000
13) A18-1-63 (VHH, also called candidate nanobody A18-1-63) VHH: QVQLQESGGGLVQPGGSLRLSCAASGSIFNIPVMGWYRQAPGKQRELVAGISTGGTTNYGDSVKGRFTISRDNAKNTVYLQMNSLKPEDTAVYYCNVLVVSGIGSTLEVWG
385000
14) A18-1-45 (VHH) VHH: EVQLQESGGGLVQPGGSLRLSCAASGIIFNIPVMSWYRQAPGKQRELVAGISTGGTTNYGDSVKGRFTISRDNAKNTVYLQMNSLKPEDTAVYYCNVLVVSGIGSHLEVWG
369000
15) A18-1-78 (VHH) VHH: EVQLQESGGGLVQPGGSLRLSCAASGNIFRIDTMGWYRQAPGKQREFVAGISRGGSTNYAHSVKERFTISRDNAKNTMYLQMNSLKSEDTAGYYCNAQAWDPGTIRYLEVWGQGTLVTVSA
385000
